# System: Bacillus anthracis
# measurement-notes: Inhibition of Bacillus anthracis sortase A
# Set-up: concentration or dose not given beside the values
# details: concentration not given here
measurement-kind: inhibition (%)
Write down the numeric answer in % and omit the unit.

Using the record for CN(C)CCC(=O)c1ccc(S(C)(=O)=O)cc1 , report its inhibition. 91.3

Using the record for CN(C)CCC(=O)c1ccc(Cl)c(Cl)c1 , report its inhibition. 90.4

Using the record for CCOC(=O)N1CCN(CCC(=O)c2ccc(Br)cc2)CC1 , report its inhibition. 90.7

Using the record for CN(C)CCC(=O)c1cccs1 , report its inhibition. 90.7

---

# measurement-notes: Inhibition of Bacillus anthracis sortase A
measurement-kind: IC50 (µM)
Write down the numeric answer in µM and omit the unit.

Using the record for CN(C)CCC(=O)c1cccs1 , report its IC50. 4.8

---

# System: Bacillus anthracis
# measurement-notes: Inhibition of Bacillus anthracis sortase A
# Set-up: concentration or dose not given beside the values
# details: concentration not given here
Quick list: inhibition per entry.
Write down the numeric answer in % and omit the unit.

Using the record for Cc1ccc(C(=O)CCN2CCOCC2)cc1 , report its inhibition. 88.9

Using the record for CC1CCCN(CCC(=O)c2ccc(Br)cc2)C1 (stereo unspecified) , report its inhibition. 83.7

Using the record for O=C(CCN1CCOCC1)c1ccc(Cl)cc1 , report its inhibition. 90.6

Using the record for O=C(CCN1CCOCC1)c1ccc(F)cc1 , report its inhibition. 89.1

Using the record for O=C(CCNc1ccccc1)c1cccc([N+](=O)[O-])c1 , report its inhibition. 87.3

Using the record for CN(C)CCC(=O)c1cccc([N+](=O)[O-])c1 , report its inhibition. 90.2
